Reported protein stability index values are given for each entry in this list.
B1: MATN2 (parent)
chain: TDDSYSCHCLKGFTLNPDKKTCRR

Variants of: B1
method.summary: protein stability index of a GFP-peptide fusion (GPS, HEK-293T) (PSI 1-6); higher = more stable;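 also: lentivirally expressed fusions sorted by FACS into six bins by GFP to DsRed ratio, PSI derived from sequencing read proportions per bin multiplied by bin number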
conditions: c terminus: a fixed tail appended
Answer as a number with no unit attached.

// solved cases for protein stability index follow
>>> reported_measurement("T21P")
2.36
>>> reported_measurement("D2E")
1.98
>>> reported_measurement("H8V")
2.33
>>> reported_measurement("R23F")
1.86

## Task If you can, please state the reported protein stability index value of G12M .
## Result 1.9
